Where do these numbers come from? They come from patent US9359301B2.

pKi: −log10 of the molar value.
// endpoint pKi / system human mGlu5a receptor (Homo sapiens (Human), UniProt P41594)

COMPOUND | TARGET_OR_SYSTEM | pKi
CCN(C(=O)c1ncc(C#Cc2cccc(Cl)c2)cn1)C(C)(C)C | human mGlu5a receptor (Homo sapiens (Human), UniProt P41594) | 7.34
CN(C(=O)c1ncc(C#Cc2cccc(F)c2)cn1)C(C)(C)C [Reference compound 2, reference compound] | human mGlu5a receptor (Homo sapiens (Human), UniProt P41594) | 7.29
CCN(C(=O)c1ncc(C#Cc2cccc(F)c2)cn1)C(C)(C)C | human mGlu5a receptor (Homo sapiens (Human), UniProt P41594) | 7.03

====

# TARGET_OR_SYSTEM: human mGlu5a receptor (Homo sapiens (Human), UniProt P41594)
# Sequence (P41594 other isoform, or with tags, fused parts or gaps): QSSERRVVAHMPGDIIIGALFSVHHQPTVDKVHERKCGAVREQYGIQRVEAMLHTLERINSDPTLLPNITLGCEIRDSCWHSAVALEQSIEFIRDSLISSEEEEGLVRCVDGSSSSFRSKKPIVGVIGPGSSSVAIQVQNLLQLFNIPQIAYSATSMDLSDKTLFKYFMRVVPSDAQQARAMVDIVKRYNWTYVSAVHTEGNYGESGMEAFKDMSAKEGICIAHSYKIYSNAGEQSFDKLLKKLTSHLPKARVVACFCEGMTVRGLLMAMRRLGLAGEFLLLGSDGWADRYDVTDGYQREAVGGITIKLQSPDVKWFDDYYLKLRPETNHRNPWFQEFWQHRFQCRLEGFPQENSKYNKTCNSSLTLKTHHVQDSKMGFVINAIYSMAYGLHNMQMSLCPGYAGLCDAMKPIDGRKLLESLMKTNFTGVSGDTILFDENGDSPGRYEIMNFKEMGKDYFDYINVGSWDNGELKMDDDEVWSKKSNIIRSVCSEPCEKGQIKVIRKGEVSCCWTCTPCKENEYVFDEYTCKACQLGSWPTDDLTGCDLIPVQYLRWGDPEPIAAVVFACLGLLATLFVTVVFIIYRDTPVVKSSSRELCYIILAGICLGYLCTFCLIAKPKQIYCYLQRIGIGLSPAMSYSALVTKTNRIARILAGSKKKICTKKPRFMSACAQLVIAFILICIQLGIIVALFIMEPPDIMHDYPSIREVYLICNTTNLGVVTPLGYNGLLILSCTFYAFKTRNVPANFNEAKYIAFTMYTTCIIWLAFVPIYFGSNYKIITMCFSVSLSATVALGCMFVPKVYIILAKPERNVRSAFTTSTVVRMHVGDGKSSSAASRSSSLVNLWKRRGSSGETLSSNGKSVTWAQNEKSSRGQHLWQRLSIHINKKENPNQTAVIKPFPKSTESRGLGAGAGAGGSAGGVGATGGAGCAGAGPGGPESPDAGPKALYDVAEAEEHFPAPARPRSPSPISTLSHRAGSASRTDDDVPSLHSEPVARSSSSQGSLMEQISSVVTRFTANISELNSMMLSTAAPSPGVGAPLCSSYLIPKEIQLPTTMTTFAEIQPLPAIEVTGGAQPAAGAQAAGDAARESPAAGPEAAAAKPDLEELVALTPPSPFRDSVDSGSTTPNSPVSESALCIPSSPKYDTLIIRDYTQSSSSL
# ASSAY_INFO: MPEP binding assay ([3H]MPEP displacement)
# TEST_CONTEXT: [3H]MPEP 2 nM, EBNA cell membranes, 1 h at 4° C.; read-out: mGlu5-MPEP binding EC50
pEC50: −log10 of the molar value.

MOLECULE | pEC50
CCN(C(=O)c1ccc(C#Cc2cccc(Cl)c2)cn1)C(C)(C)C [Example 2] | 7.62
CCN(C(=O)c1ncc(C#Cc2cccc(F)c2)cn1)C(C)(C)C [Example 3] | 7.03
CN(C(=O)c1ccc(C#Cc2cccc(F)c2)cn1)C(C)(C)C [Reference compound 1, reference compound] | 7.54
CCN(C(=O)c1ncc(C#Cc2cccc(Cl)c2)cn1)C(C)(C)C [Example 4] | 7.34
CN(C(=O)c1ncc(C#Cc2cccc(F)c2)cn1)C(C)(C)C [Reference compound 2, reference compound] | 7.29
CCN(C(=O)c1ccc(C#Cc2cccc(F)c2)cn1)C(C)(C)C [Example 1] | 7.38
